Source: BigSolDB 2.1

# reported.conditions: in methanol, 298.15 K
attribute.measured: solubility (mole fraction)
Give your answer as a number; write no unit.

Incoming: Please list solubility (mole fraction) recorded for the compound CC(=O)OC(OC(C)=O)c1ccc([N+](=O)[O-])o1
Outgoing: 0.108

====

# reported.conditions: in toluene, 283.15 K
attribute.measured: solubility (mole fraction)
Output spec: single numeric token, no unit.

Incoming: Please report solubility (mole fraction) for the following molecule: CC(=O)OC(OC(C)=O)c1ccc([N+](=O)[O-])o1
Outgoing: 0.154

====

# reported.conditions: in 1,4-dioxane, 303.15 K
attribute.measured: solubility (mole fraction)

Incoming: Please indicate solubility (mole fraction) recorded for CC(=O)OC(OC(C)=O)c1ccc([N+](=O)[O-])o1
Outgoing: 0.166

====

# reported.conditions: in methanol, 318.15 K
attribute.measured: solubility (mole fraction)
// keep it numeric: no unit symbol after the value

Incoming: # return recorded solubility (mole fraction) for entry CC(=O)OC(OC(C)=O)c1ccc([N+](=O)[O-])o1
Outgoing: 0.155

====

# reported.conditions: in n-propanol, 298.15 K
attribute.measured: solubility (mole fraction)
# respond with the number and nothing more

Incoming: Output solubility (mole fraction) of CC(=O)OC(OC(C)=O)c1ccc([N+](=O)[O-])o1
Outgoing: 0.0625

====

# reported.conditions: in THF, 323.15 K
attribute.measured: solubility (mole fraction)
Write the number on its own, no unit after it.

Incoming: Supply solubility (mole fraction) value. Item: CC(=O)OC(OC(C)=O)c1ccc([N+](=O)[O-])o1
Outgoing: 0.488

====

# reported.conditions: in methanol, 293.15 K
attribute.measured: solubility (mole fraction)
Just the number, please.

Incoming: Please give measured solubility (mole fraction) of the following entry: CC(=O)OC(OC(C)=O)c1ccc([N+](=O)[O-])o1
Outgoing: 0.0995

====

# reported.conditions: in acetone, 298.15 K
attribute.measured: solubility (mole fraction)
// print number alone

Incoming: Please report solubility (mole fraction) for the following compound: CC(=O)OC(OC(C)=O)c1ccc([N+](=O)[O-])o1
Outgoing: 0.182

====

# reported.conditions: in acetonitrile, 313.15 K
attribute.measured: solubility (mole fraction)
Just the number.

Incoming: Return solubility (mole fraction) (reported value) for this molecule: CC(=O)OC(OC(C)=O)c1ccc([N+](=O)[O-])o1
Outgoing: 0.0126

====

# reported.conditions: in methanol, 303.15 K
attribute.measured: solubility (mole fraction)
Please reply with the number alone, leaving off any unit.

Incoming: Output measured solubility (mole fraction) for this item: CC(=O)OC(OC(C)=O)c1ccc([N+](=O)[O-])o1
Outgoing: 0.118

====

# reported.conditions: in 1,4-dioxane, 313.15 K
attribute.measured: solubility (mole fraction)

Incoming: Using known records, supply solubility (mole fraction) for CC(=O)OC(OC(C)=O)c1ccc([N+](=O)[O-])o1
Outgoing: 0.214

====

# reported.conditions: in n-propanol, 283.15 K
attribute.measured: solubility (mole fraction)
Would you mind answering with just the numeric figure?

Incoming: Please report solubility (mole fraction) for the following compound: CC(=O)OC(OC(C)=O)c1ccc([N+](=O)[O-])o1
Outgoing: 0.0474

====

# reported.conditions: in DMF, 303.15 K
attribute.measured: solubility (mole fraction)
Give only the figure.

Incoming: Fill in solubility (mole fraction) for record CC(=O)OC(OC(C)=O)c1ccc([N+](=O)[O-])o1
Outgoing: 0.248
